- Measurement Target: Kappa-type opioid receptor (Homo sapiens, UniProt P41145)
- Sequence (P41145 whole entry): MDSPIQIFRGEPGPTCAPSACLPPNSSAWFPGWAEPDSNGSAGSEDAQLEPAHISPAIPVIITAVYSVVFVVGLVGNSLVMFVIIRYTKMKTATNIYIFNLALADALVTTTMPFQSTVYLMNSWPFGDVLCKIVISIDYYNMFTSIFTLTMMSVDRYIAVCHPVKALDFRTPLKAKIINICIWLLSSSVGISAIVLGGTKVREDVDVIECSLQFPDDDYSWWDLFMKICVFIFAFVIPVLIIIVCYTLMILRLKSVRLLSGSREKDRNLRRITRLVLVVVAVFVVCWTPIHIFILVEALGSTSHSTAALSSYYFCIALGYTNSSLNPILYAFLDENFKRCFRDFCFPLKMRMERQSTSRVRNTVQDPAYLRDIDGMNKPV
- Protocol Summary: Displacement of [3H]U69593 from human kappa opioid receptor expressed in CHO cell membrane after 2 hrs by scintillation counting analysis
- Assay type: cell membranes
Below, each entry is listed alongside its reported pKi.
As a rule, pKi stands for the negative log10 of the concentration, concentration in M.

Known results for compounds:
{"Smiles Input": "CCO[C@@H](CBr)O[C@H]1C[C@@H](C(=O)OC)[C@]2(C)CC[C@H]3C(=O)O[C@H](c4ccoc4)C[C@]3(C)[C@H]2C1=O", "pKi": 5.28}
{"Smiles Input": "CCOC(=O)O[C@H]1C[C@@H](C(=O)OC)[C@]2(C)CC[C@H]3C(=O)O[C@H](c4ccoc4)C[C@]3(C)[C@H]2C1=O", "pKi": 6.77}
{"Smiles Input": "COC(=O)[C@@H]1C[C@H](O[C@@H]2CCCO2)C(=O)[C@H]2[C@@]1(C)CC[C@H]1C(=O)O[C@H](c3ccoc3)C[C@]21C", "pKi": 7.12}
{"Smiles Input": "CCOCO[C@H]1C[C@@H](C(=O)OC)[C@]2(C)CC[C@H]3C(=O)O[C@H](c4ccoc4)C[C@]3(C)[C@H]2C1=O", "pKi": 8.50}
{"Smiles Input": "CCO[C@H](CBr)O[C@H]1C[C@@H](C(=O)OC)[C@]2(C)CC[C@H]3C(=O)O[C@H](c4ccoc4)C[C@]3(C)[C@H]2C1=O", "pKi": 5.13}
{"Smiles Input": "COC(=O)[C@@H]1C[C@H](O[C@@H]2CCCCO2)C(=O)[C@H]2[C@@]1(C)CC[C@H]1C(=O)O[C@H](c3ccoc3)C[C@]21C", "pKi": 8.21}
{"Smiles Input": "COCO[C@H]1C[C@@H](C(=O)OC)[C@]2(C)CC[C@H]3C(=O)O[C@H](C(=O)N4CCCCC4)C[C@]3(C)[C@H]2C1=O", "pKi": 7.23}
{"Smiles Input": "COC(=O)[C@@H]1C[C@H](O[C@H]2CCCCO2)C(=O)[C@H]2[C@@]1(C)CC[C@H]1C(=O)O[C@H](c3ccoc3)C[C@]21C", "pKi": 6.52}
{"Smiles Input": "COC(=O)[C@@H]1C[C@H](O[C@H]2CCCO2)C(=O)[C@H]2[C@@]1(C)CC[C@H]1C(=O)O[C@H](c3ccoc3)C[C@]21C", "pKi": 7.09}

Please give measured pKi of the following entry: COC(=O)[C@@H]1C[C@H](OC=O)C(=O)[C@H]2[C@@]1(C)CC[C@H]1C(=O)O[C@H](c3ccoc3)C[C@]21C
7.39

* * *

- Measurement Target: UniProtKB P41145
- Protocol Summary: Displacement of [3H]U69593 from human kappa opioid receptor expressed in CHO cell membrane after 2 hrs by scintillation counting analysis
- Type: cell membranes
- Experimental Conditions: cho
Endpoint Name: Ki (nM)
# unit: nM | format: bare number

Please give measured Ki of the following entry: COC(=O)[C@@H]1C[C@H](OC(C)=O)C(=O)[C@H]2[C@@]1(C)CC[C@H]1C(=O)O[C@H](C(=O)N3CCCCC3)C[C@]21C
140

* * *

- Measurement Target: Delta-type opioid receptor (Homo sapiens, UniProt P41143)
- Sequence (P41143 whole entry): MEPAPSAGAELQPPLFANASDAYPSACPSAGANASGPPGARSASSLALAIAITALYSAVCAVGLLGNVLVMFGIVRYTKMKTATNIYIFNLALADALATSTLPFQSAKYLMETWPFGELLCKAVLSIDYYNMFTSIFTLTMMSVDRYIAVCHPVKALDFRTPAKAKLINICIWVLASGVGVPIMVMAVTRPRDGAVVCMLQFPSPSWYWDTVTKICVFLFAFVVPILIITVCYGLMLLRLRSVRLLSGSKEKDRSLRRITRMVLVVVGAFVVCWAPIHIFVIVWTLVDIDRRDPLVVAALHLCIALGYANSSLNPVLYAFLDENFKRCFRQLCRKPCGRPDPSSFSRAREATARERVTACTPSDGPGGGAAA
- Protocol Summary: Displacement of [3H]DADLE from human delta opioid receptor expressed in CHO cell membrane after 2 hrs by liquid scintillation counting analysis
pKi: −log10 of the molar value.
Below, each entry is listed alongside its reported pKi.

{"Molecule": "COC(=O)[C@@H]1C[C@H](O[C@H]2CCCO2)C(=O)[C@H]2[C@@]1(C)CC[C@H]1C(=O)O[C@H](c3ccoc3)C[C@]21C", "pKi": "< 5.00"}
{"Molecule": "CCO[C@H](CBr)O[C@H]1C[C@@H](C(=O)OC)[C@]2(C)CC[C@H]3C(=O)O[C@H](c4ccoc4)C[C@]3(C)[C@H]2C1=O", "pKi": "< 5.30"}
{"Molecule": "CCO[C@@H](C)O[C@H]1C[C@@H](C(=O)OC)[C@]2(C)CC[C@H]3C(=O)O[C@H](c4ccoc4)C[C@]3(C)[C@H]2C1=O", "pKi": "< 5.30"}
{"Molecule": "COC(=O)[C@@H]1C[C@H](O[C@@H]2CCCCO2)C(=O)[C@H]2[C@@]1(C)CC[C@H]1C(=O)O[C@H](c3ccoc3)C[C@]21C", "pKi": "< 5.00"}
{"Molecule": "CCOC(=O)O[C@H]1C[C@@H](C(=O)OC)[C@]2(C)CC[C@H]3C(=O)O[C@H](c4ccoc4)C[C@]3(C)[C@H]2C1=O", "pKi": "< 5.00"}

Please give measured pKi of the following entry: CCO[C@H](C)O[C@H]1C[C@@H](C(=O)OC)[C@]2(C)CC[C@H]3C(=O)O[C@H](c4ccoc4)C[C@]3(C)[C@H]2C1=O
< 5.30

Please give measured pKi of the following entry: COC(=O)[C@@H]1C[C@H](OC=O)C(=O)[C@H]2[C@@]1(C)CC[C@H]1C(=O)O[C@H](c3ccoc3)C[C@]21C
< 5.00

Please give measured pKi of the following entry: COC(=O)[C@@H]1C[C@H](O[C@H]2CCCCO2)C(=O)[C@H]2[C@@]1(C)CC[C@H]1C(=O)O[C@H](c3ccoc3)C[C@]21C
< 5.00

Please give measured pKi of the following entry: CCOCO[C@H]1C[C@@H](C(=O)OC)[C@]2(C)CC[C@H]3C(=O)O[C@H](c4ccoc4)C[C@]3(C)[C@H]2C1=O [SALVINORIN B ETHOXYMETHYL ETHER]
5.99

Please give measured pKi of the following entry: CCO[C@@H](CBr)O[C@H]1C[C@@H](C(=O)OC)[C@]2(C)CC[C@H]3C(=O)O[C@H](c4ccoc4)C[C@]3(C)[C@H]2C1=O
< 5.30

Please give measured pKi of the following entry: COCO[C@H]1C[C@@H](C(=O)OC)[C@]2(C)CC[C@H]3C(=O)O[C@H](C(=O)N4CCCCC4)C[C@]3(C)[C@H]2C1=O
< 5.52

Please give measured pKi of the following entry: CCNC(=O)O[C@H]1C[C@@H](C(=O)OC)[C@]2(C)CC[C@H]3C(=O)O[C@H](c4ccoc4)C[C@]3(C)[C@H]2C1=O
< 5.00

Please give measured pKi of the following entry: COC(=O)[C@@H]1C[C@H](O[C@@H]2CCCO2)C(=O)[C@H]2[C@@]1(C)CC[C@H]1C(=O)O[C@H](c3ccoc3)C[C@]21C
< 5.00
